- assay.info: Cytotoxicity against MT4 cells at 10 ug/ml after 4 days by MTT assay
- Type: cell-based
- condition.info: human, read-out: Inhibition
# label = TRUE if cytotoxicity at 96 h, 10 ug/ml >= 20% else FALSE

Determine whether this compound has cytotoxicity at 96 h, 10 ug/ml no lower than 20%: C[C@H](Cn1cnc2c(N)ncnc21)OCP(=O)(OCOC(=O)OC1CCCC1)OCOC(=O)OC1CCCC1.O=C(O)/C=C/C(=O)O TRUE

Is cytotoxicity at 96 h, 10 ug/ml for Nc1ncnc2c1ncn2CCOCP(=O)(O)OCOC(=O)OCc1ccccc1.O=C(O)/C=C/C(=O)O at or above 20%? FALSE

Is cytotoxicity at 96 h, 10 ug/ml for C=CCOC(=O)OCOP(=O)(COCCn1cnc2c(N)ncnc21)OCOC(=O)OCC=C.O=C(O)/C=C/C(=O)O at or above 20%? TRUE

API: above_or_equal(metric=cytotoxicity at 96 h, 10 ug/ml, cutoff=20%) for item C[C@H](Cn1cnc2c(N)ncnc21)OCP(=O)(OCOC(=O)OCc1ccccc1)OCOC(=O)OCc1ccccc1.O=C(O)/C=C/C(=O)O TRUE

Determine whether measured cytotoxicity at 96 h, 10 ug/ml meets or exceeds 20% for Nc1ncnc2c1ncn2CCOCP(=O)(OCOC(=O)OCc1ccccc1)OCOC(=O)OCc1ccccc1.O=C(O)/C=C/C(=O)O TRUE
